Listed here are compounds together with their documented IC50.
# ASSAYED_SYSTEM: Large T antigen (Simian virus 40, UniProt P03070);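 also: Confirmatory-stage PubChem screen for compounds that inhibit SV40 T antigen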
# Sequence (P03070 whole entry): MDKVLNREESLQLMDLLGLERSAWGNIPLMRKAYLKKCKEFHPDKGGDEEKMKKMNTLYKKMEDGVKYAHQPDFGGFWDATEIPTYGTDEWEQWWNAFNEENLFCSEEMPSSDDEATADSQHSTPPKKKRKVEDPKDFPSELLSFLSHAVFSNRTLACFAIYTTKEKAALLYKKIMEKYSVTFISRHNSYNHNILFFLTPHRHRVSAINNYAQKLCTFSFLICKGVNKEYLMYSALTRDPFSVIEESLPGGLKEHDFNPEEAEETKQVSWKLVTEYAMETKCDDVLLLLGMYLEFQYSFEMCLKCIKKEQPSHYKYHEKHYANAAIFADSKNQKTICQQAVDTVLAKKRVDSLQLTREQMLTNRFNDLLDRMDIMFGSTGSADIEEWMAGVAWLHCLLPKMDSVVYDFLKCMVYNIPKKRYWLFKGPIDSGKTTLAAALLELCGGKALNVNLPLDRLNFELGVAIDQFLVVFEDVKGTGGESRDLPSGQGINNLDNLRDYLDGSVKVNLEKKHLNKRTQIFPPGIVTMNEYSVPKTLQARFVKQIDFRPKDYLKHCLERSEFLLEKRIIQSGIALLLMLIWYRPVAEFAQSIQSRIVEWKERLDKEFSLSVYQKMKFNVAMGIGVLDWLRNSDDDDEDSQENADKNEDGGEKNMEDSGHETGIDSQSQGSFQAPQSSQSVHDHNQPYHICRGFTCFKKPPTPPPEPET
# Assay type: functional, Betapolyomavirus macacae
Calls of active or inactive are those of the source.
MEASURED_METRIC: IC50

[[record]]
cpd_smiles = "C=CCn1c(SCC(=O)c2ccc(O)c(O)c2)nnc1-c1ccccc1OC"
assayed_system = "Large T antigen (Simian virus 40, UniProt P03070)"
result = "14.7 µM (active)"

[[record]]
cpd_smiles = "Oc1ccc(Nc2nc(N3CCCC3)c3ccccc3n2)cc1"
assayed_system = "Large T antigen (Simian virus 40, UniProt P03070)"
result = "4.72 µM (active)"

[[record]]
cpd_smiles = "Cc1cc(F)ccc1S(=O)(=O)N(C(=O)c1ccncc1)c1ccc(OC(=O)c2ccncc2)cc1"
assayed_system = "Large T antigen (Simian virus 40, UniProt P03070)"
result = "50.7 µM (active)"


---

# System: Streptococcus sp. 'group A'
# EXPERIMENTAL_PROTOCOL: Streptococcus pyogenes SK(-)GAS viability under kanamycin – luminescence, BacTiterGlo, confirmation, counter-screen for streptokinase expression inhibitor project, dose response (AID 1900)
# Assay type: functional, organism-based
Calls of active or inactive are those of the source.
Listed here are molecules together with their documented EC50.
MEASURED_METRIC: EC50

[[record]]
cpd_smiles = "c1ccc(-c2nc(N3CCCCCC3)c3ccccc3n2)nc1"
assayed_system = "Streptococcus sp. 'group A'"
measured_metric = "EC50"
result = "0.947 µM (active)"

[[record]]
cpd_smiles = "CC(C)(C)c1cc(C(=O)N/N=C/c2ccc([N+](=O)[O-])s2)[nH]n1"
assayed_system = "Streptococcus sp. 'group A'"
measured_metric = "EC50"
result = "12.3 µM (active)"

[[record]]
cpd_smiles = "O=C(Oc1ccc(Cl)c2cccnc12)c1ccco1"
assayed_system = "Streptococcus sp. 'group A'"
measured_metric = "EC50"
result = "3.93 µM (active)"

[[record]]
cpd_smiles = "O=C(Nc1cccc(Cl)c1N1CCCC1)c1ccc(Br)o1"
assayed_system = "Streptococcus sp. 'group A'"
measured_metric = "EC50"
result = "4.12 µM (active)"

[[record]]
cpd_smiles = "O=C(Cn1cn[n+](CC(=O)c2ccc(Cl)cc2Cl)c1)c1ccc([N+](=O)[O-])cc1"
assayed_system = "Streptococcus sp. 'group A'"
measured_metric = "EC50"
result = "11.3 µM (active)"


---

Listed here are compounds together with their documented IC50.
# ASSAYED_SYSTEM: Rac GTPase-activating protein 1 (Homo sapiens, UniProt Q9H0H5)
# Sequence (Q9H0H5 whole entry): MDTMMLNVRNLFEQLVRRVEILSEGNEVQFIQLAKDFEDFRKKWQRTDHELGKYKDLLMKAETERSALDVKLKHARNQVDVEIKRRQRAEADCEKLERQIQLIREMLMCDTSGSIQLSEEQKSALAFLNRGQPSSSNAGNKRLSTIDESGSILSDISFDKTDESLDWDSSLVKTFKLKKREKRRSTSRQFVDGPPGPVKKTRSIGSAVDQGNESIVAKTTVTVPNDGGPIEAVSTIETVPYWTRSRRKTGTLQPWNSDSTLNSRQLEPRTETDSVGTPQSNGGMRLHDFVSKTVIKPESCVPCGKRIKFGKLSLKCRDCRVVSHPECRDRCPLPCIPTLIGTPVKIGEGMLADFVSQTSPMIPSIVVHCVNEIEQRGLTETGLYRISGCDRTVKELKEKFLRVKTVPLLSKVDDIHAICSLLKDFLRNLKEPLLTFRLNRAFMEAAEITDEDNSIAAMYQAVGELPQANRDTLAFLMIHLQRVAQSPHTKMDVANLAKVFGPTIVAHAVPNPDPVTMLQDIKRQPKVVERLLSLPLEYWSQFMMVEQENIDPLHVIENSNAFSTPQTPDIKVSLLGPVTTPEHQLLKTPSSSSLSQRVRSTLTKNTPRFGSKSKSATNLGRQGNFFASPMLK
# EXPERIMENTAL_PROTOCOL: blockers of MgcRacGAP-driven Rac1 GTP hydrolysis – biochemical, ADP Hunter fluorescence, primary and confirmatory, confirmation (AID 624330)
# Type: functional
Activity calls are given as the source filed them.
MEASURED_METRIC: IC50

[[record]]
cpd_smiles = "COc1ccc(CN(C)CCc2ccccn2)cc1OC"
assayed_system = "Rac GTPase-activating protein 1 (Homo sapiens, UniProt Q9H0H5)"
result = "74.6 µM (active)"

[[record]]
cpd_smiles = "COc1ccc2c(c1)-c1c(ssc1=S)C(C)(C)N2"
assayed_system = "Rac GTPase-activating protein 1 (Homo sapiens, UniProt Q9H0H5)"
result = "29.4 µM (active)"

[[record]]
cpd_smiles = "COc1cc(/C=C/C(=O)OCC(=O)NCc2ccc(F)cc2)ccc1O"
assayed_system = "Rac GTPase-activating protein 1 (Homo sapiens, UniProt Q9H0H5)"
result = "36.3 µM (active)"

[[record]]
cpd_smiles = "COc1cc(/C=N/Nc2ccc(C(F)(F)F)cn2)ccc1O"
assayed_system = "Rac GTPase-activating protein 1 (Homo sapiens, UniProt Q9H0H5)"
result = "36.3 µM (active)"

